The entries below are paired with their reported AC50.
# target or system: UniProtKB P14618
# Sequence (P14618 whole entry): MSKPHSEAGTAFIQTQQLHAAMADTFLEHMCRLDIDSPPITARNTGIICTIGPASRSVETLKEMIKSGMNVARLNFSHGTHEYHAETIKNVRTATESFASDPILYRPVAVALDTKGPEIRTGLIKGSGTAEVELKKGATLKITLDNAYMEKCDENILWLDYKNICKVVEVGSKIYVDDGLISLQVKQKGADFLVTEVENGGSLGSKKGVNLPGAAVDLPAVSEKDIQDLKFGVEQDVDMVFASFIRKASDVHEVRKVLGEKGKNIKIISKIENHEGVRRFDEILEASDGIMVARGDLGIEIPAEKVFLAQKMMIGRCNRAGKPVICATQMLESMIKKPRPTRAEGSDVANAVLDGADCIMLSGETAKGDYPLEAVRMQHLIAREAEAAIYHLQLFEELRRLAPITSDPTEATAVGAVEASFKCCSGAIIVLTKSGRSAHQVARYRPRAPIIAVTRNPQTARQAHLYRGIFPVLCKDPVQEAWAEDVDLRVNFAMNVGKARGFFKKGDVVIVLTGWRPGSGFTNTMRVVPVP
# test: PKM2 activation assay (ATP formation measured by Kinase Glo)
# Assay type: biochemical
# cond: 2 nM PKM2, 30 min pre-incubation, 75 μM ADP, 15 μM PEP, ATP formation after 30 min

> print(dat)
                                   compound  target.or.system        test.value
1  O=C(c1cc(C(F)(F)F)n[nH]1)N(CCC1CCS(=O)(=O)CC1)Cc1c(F)cccc1Br [Compound Ib]  UniProtKB P14618  0.015 to 0.05 µM
2  Nc1cccc(Cl)c1CN(CCC1CCS(=O)(=O)CC1)C(=O)c1cc(C(F)(F)F)n[nH]1 [Compound Ia]  UniProtKB P14618        < 0.015 µM
3  NCc1ccc(F)c(CN(CCC2CCS(=O)(=O)CC2)C(=O)c2cc(C(F)(F)F)n[nH]2)c1 [Compound If]  UniProtKB P14618  0.015 to 0.05 µM

Turning now to a further compound:
Query: Data request, read-out AC50, for O=C(c1cc(C(F)(F)F)n[nH]1)N(CCC1CCS(=O)(=O)CC1)Cc1c(F)ccc2cn[nH]c12 [Compound Ig]
Reply: 0.015 to 0.05 µM
